The measurements presented in this section are drawn from ChEMBL document CHEMBL1134157.

# experimental.system: Collagenase 3 (Homo sapiens)
quantity: pIC50
The read-out pIC50 is expressed as -log10 of concentration in moles per litre.

Example entries begin here.
- molecule: "O=C(NO)C(CCn1ncc2ccccc2c1=O)COc1ccc(-c2ccccc2)cc1 (configuration not stated)"
  pIC50: 7.00
- molecule: "CN1C(=O)N(CCC(COc2ccc(-c3ccccc3)cc2)C(=O)NO)C(=O)C1(C)C (configuration not stated)"
  pIC50: 7.08
- molecule: "O=C(NO)C(CCN1C(=O)c2ccccc2S1(=O)=O)COc1ccc(-c2ccccc2)cc1 (configuration not stated)"
  pIC50: 7.38
- molecule: "O=C(NO)C(CCN1C(=O)c2ccccc2C1=O)COc1ccc(-c2ccccc2)cc1 (configuration not stated)"
  pIC50: 8.15
- molecule: "O=C(NO)C(CCn1nnc2ccccc2c1=O)COc1ccc(-c2ccc(Cl)cc2)cc1 (configuration not stated)"
  pIC50: 10.80
- molecule: "O=C(NO)C(CCn1nnc2ccccc2c1=O)COCCc1ccc(-c2ccc(Cl)cc2)cc1 (configuration not stated)"
  pIC50: 7.17

Then this molecule:
Entry O=C(NO)C(CCn1nnc2ccccc2c1=O)COc1ccc(-c2ccccc2)cc1 (configuration not stated) : reported pIC50 = ?
8.52
